The values you see were collected from patent US8193224B2.

# protocol-details: Growth inhibition test of rat L6 cells
# Type: cell-based
# condition-set: Alamar Blue (Table 3), read-out: 50% growth inhibiting concentration Cytotoxicity L6
readout: EC50 at 72 h (µM)
Field: numeric (µM). Do not append units.

Reported EC50 at 72 h ( Nc1nc(N)nc(Nc2ccc([As]3SCC(CO)S3)cc2)n1 (stereo not shown) [melarsoprol, reference compound] ) = 7.8

* * *

# Test system: Rat derived-L6 cells (rat skeletal myoblast cell)
# protocol-details: Growth inhibition test of rat L6 cells
# Type: cell-based
# condition-set: 72 hours, Alamar Blue (Table 2), read-out: 50% growth inhibition concentration Cytotoxicity L6
# Experimental: Rat derived-L6 cells (rat skeletal myoblast cell) were used. As medium, RPMI1640 medium was supplemented so that L-glutamin (200 mM) is 1%, and fetal bovine serum 10%, and the medium was cultured under CO2 concentration 5%, at 37° C. […] 10 μl of Alamar Blue aqueous solution was added to each well, and the resultant was further cultured for 2 hours. […] Fluorescent intensity was measured at 588 nm, and residual rate of L6 cells of the test solution added group, and that of the control was calculated. […]
readout: pEC50
Please express pEC50 as -log10 of the molar concentration.

Form field pEC50, entry CCn1c(=Cc2cccc[n+]2C)sc(=CC=C2Sc3ccccc3N2C)c1=O [A-4] : 4.12

Lab note: CCn1c(=Cc2oc3ccccc3[n+]2CC)sc(=CC=C2N(C)c3ccccc3C2(C)C)c1=O [A-8] gave pEC50 of 5.74

So, CCn1c(=Cc2sc3c4ccccc4ccc3[n+]2CC)sc(=CC=C2SCCN2C)c1=O [A-9] ? Its pEC50 was 5.09

Please fill in: pEC50 reported for CCn1c(=Cc2cc[n+](CC)c3ccccc23)sc(=CC=C2C=Cc3ccccc3N2C)c1=O [A-14] = 5.04
